Where these numbers come from: patent US20110135636A1

Subject Of Test: T1, recombinant human EGFR extracellular domain with 6xHis (human, UniProt P00533 25-645)
T1 construct: In-house produced; also called 6xHis EGFR ECD; soluble human EGFR ECD; not shown: 6xHis tag
Assay: SPR competition, competitor 1260
A collection of binders and their measured % inhibition

- Binder: "antibody 1284 (antibody, human IgG1, kappa, V domains shown, Chimeric IgG1 kappa) VH: QVQLQQPGAELVKPGASVKLSCKASGYTFTSDWMHWMKQRPGQGLEWIGEINPSNGRSSYNEKFKSKATLTVDKSSSTAYMQLSSLTSEDSAVYYCARIGGIYVETYWGQGTLVTVSS VL: DIVLTQSPASLAVSLGQRATISCRASQSVSTSTYSYMHWYQQKSGQPPKLLIKYASNLESGVPARFSGSGSGTDFTLNIHPVEEEDTATYYCQHSWEIPWTFGGGTKLEIKR"
  Measurement Unit: "%"
  % inhibition: 79
- Binder: "antibody 1030 (antibody, human IgG1, kappa, V domains shown, Chimeric IgG1 kappa) VH: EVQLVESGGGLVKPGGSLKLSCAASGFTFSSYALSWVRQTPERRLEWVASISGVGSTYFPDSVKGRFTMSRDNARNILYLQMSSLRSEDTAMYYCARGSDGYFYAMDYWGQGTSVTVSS VL: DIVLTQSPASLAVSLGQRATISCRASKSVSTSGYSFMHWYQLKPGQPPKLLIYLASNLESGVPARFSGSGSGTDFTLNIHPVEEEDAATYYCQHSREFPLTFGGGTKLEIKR"
  Measurement Unit: "%"
  % inhibition: 16
- Binder: "antibody 1024 (antibody, human IgG1, kappa, V domains shown, Chimeric IgG1 kappa) VH: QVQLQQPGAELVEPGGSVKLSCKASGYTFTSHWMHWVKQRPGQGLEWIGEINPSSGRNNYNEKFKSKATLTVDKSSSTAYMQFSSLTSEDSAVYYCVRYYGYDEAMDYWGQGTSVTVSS VL: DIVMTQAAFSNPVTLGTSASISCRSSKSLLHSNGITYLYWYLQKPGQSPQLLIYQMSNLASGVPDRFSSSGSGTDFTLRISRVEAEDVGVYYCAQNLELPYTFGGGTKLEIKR"
  Measurement Unit: "%"
  % inhibition: 35
